assay metric: melting point

Sample answers from the record:
[
  {
    "molecule": "CC1(c2ccc(Br)cc2)C(=O)N(Cc2ccc(F)cc2)Cc2cncn21.Cl (centres unmarked)",
    "value reported": "235 to 237 °C"
  },
  {
    "molecule": "Cl.Cl.N#Cc1ccc(C2C(=O)N(CCCN3CCOCC3)Cc3cncn32)cc1 (centres unmarked)",
    "value reported": "246 to 248 °C"
  },
  {
    "molecule": "COc1ccc(CN2Cc3cncn3C(c3ccc(Br)cc3)C2=O)cc1 (centres unmarked)",
    "value reported": "123 to 124 °C"
  },
  {
    "molecule": "CC1(c2cccc(Br)c2)C(=O)N(CC2CC2)Cc2cncn21.Cl (centres unmarked)",
    "value reported": "234 to 236 °C"
  },
  {
    "molecule": "CN1Cc2cncn2C(c2ccc(C#N)cc2)C1=O.Cl (centres unmarked)",
    "value reported": "222 to 224 °C"
  },
  {
    "molecule": "Cl.O=C1C(c2cccc(Br)c2)n2cncc2CN1CCc1ccc(F)cc1 (centres unmarked)",
    "value reported": "179 to 180 °C"
  }
]

Query: Would you mind telling me what melting point value was observed for N#Cc1ccc(C2C(=O)N(Cc3ccc(F)cc3)Cc3cncn32)cc1 (centres unmarked) ?
Response: 132 to 135 °C

Query: Would you mind telling me what melting point value was observed for Cl.O=C1C(c2cccc(Br)c2)n2cncc2CN1Cc1ccccc1 (centres unmarked) ?
Response: 249 to 251 °C

Query: Would you mind telling me what melting point value was observed for Cl.N#Cc1cccc(C2C(=O)N(CCc3ccccc3)Cc3cncn32)c1 (centres unmarked) ?
Response: 203 to 205 °C

Query: Would you mind telling me what melting point value was observed for N#Cc1ccc(C2(Cc3ccccc3)C(=O)N(CC3CC3)Cc3cncn32)cc1 (centres unmarked) ?
Response: 156 to 158 °C

Query: Would you mind telling me what melting point value was observed for Cl.N#Cc1cccc(C2C(=O)N(CC3CC3)Cc3cncn32)c1 (centres unmarked) ?
Response: 225 to 227 °C

Query: Would you mind telling me what melting point value was observed for C[C@H](c1ccccc1)N1Cc2cncn2C(c2cccc(Br)c2)C1=O (single isomer, unassigned; (+)) ?
Response: 45 to 50 °C

Query: Would you mind telling me what melting point value was observed for CN1Cc2cncn2C(c2ccc(Br)cc2)C1=O (centres unmarked) ?
Response: 143 to 144 °C

Query: Would you mind telling me what melting point value was observed for Cl.O=C1C(c2cccc(Br)c2)n2cncc2CN1CC1CC1 (centres unmarked) ?
Response: 249 to 250 °C

====

Below: a set of entries, each annotated with reported melting point.

Sample answers from the record:
[
  {
    "molecule": "Cc1ccc(CN2Cc3cncn3C(c3cccc(C#N)c3)C2=O)cc1.Cl (stereo not drawn)",
    "value reported": "260 to 263 °C"
  },
  {
    "molecule": "Cl.O=C1C(c2cccc(Br)c2)n2cncc2CN1Cc1ccc(Cl)cc1 (stereo not drawn)",
    "value reported": "268 to 270 °C"
  },
  {
    "molecule": "N#Cc1ccc(C2CC(=O)N(Cc3ccccc3)Cc3cncn32)cc1 (stereo not drawn) [Example 92]",
    "value reported": "65 °C"
  },
  {
    "molecule": "Cl.O=C1C(c2cccc(-c3ccccc3)c2)n2cncc2CN1Cc1ccccc1 (stereo not drawn)",
    "value reported": "232 to 234 °C"
  },
  {
    "molecule": "Cc1ccc(CCN2Cc3cncn3C(c3cccc(Br)c3)C2=O)cc1.Cl (stereo not drawn)",
    "value reported": "197 to 199 °C"
  }
]

Query: Would you mind telling me what melting point value was observed for CCCN1Cc2cncn2C(c2ccc(C#N)cc2)C1=O (stereo not drawn) [Example 5] ?
Response: 97 to 98 °C
